assay: The drug is tested on Bacteroides xylanisolvens strain: HM 722 for biotransformation under anaerobic condition. The drug concentrations were measured over 6 timepoints collected between 0 and 12 hours of incubation by liquid-chromatography-coupled mass spectrometry (LC–MS); type: ADME; parameters: dose 5 uM, timepoint 0, 1.5, 3, 6, 9, 12 hours; conditions: 5 µM
parameter: Bacterial Biotransformation

[[record]]
compound = "CNC(=C[N+](=O)[O-])NCCSCc1ccc(CN(C)C)o1"
parameter = "Bacterial Biotransformation"
measurement = "Compound metabolized"

[[record]]
compound = "COc1c(C)c2c(c(O)c1C/C=C(\\C)CCC(=O)O)C(=O)OC2"
parameter = "Bacterial Biotransformation"
measurement = "Compound NOT metabolized"

[[record]]
compound = "COc1c(C)c2c(c(O)c1C/C=C(\\C)CCC(=O)OCCN1CCOCC1)C(=O)OC2 [MYCOPHENOLATE MOFETIL]"
parameter = "Bacterial Biotransformation"
measurement = "Compound metabolized"

[[record]]
compound = "C[C@]12C=CC(=O)C=C1CC[C@@H]1[C@@H]2C(=O)C[C@@]2(C)[C@H]1CC[C@]2(O)C(=O)CO"
parameter = "Bacterial Biotransformation"
measurement = "Compound NOT metabolized"


====

experiment: The drug is tested on the gut metagenome community of A-10 with ENA study accession number: PRJEB31790 for biotransformation under anaerobic condition. The drug concentrations were measured over 7 timepoints collected between 0 and 12 hours of incubation by liquid-chromatography-coupled mass spectrometry (LC–MS); assay type: ADME; design: dose 5 uM, timepoint 0, 0.75, 1.5, 3, 6, 9, 12 hours; settings: 5 µM
parameter: Bacterial Biotransformation

Worked examples follow.
[[record]]
compound = "C[C@@H](NCCCc1cccc(C(F)(F)F)c1)c1cccc2ccccc12"
parameter = "Bacterial Biotransformation"
measurement = "Compound NOT metabolized"

[[record]]
compound = "CCOC(=O)[C@H](CCc1ccccc1)N[C@@H](C)C(=O)N1[C@H](C(=O)O)C[C@@H]2CCC[C@@H]21"
parameter = "Bacterial Biotransformation"
measurement = "Compound NOT metabolized"

[[record]]
compound = "CCOC(=O)C1=C(COCCN)NC(C)=C(C(=O)OC)C1c1ccccc1Cl (stereo unspecified)"
parameter = "Bacterial Biotransformation"
measurement = "Compound NOT metabolized"

[[record]]
compound = "Cn1cnc([N+](=O)[O-])c1Sc1ncnc2nc[nH]c12"
parameter = "Bacterial Biotransformation"
measurement = "Compound NOT metabolized"

[[record]]
compound = "CN(Cc1cnc2nc(N)nc(N)c2n1)c1ccc(C(=O)N[C@@H](CCC(=O)O)C(=O)O)cc1 [METHOTREXATE]"
parameter = "Bacterial Biotransformation"
measurement = "Compound metabolized"


Now take the following compound into account.
query: Please indicate Bacterial Biotransformation recorded for C[C@]12C=CC(=O)C=C1CC[C@@H]1[C@@H]2C(=O)C[C@@]2(C)[C@H]1CC[C@]2(O)C(=O)CO
result: Compound metabolized

====

assay: The drug is tested on the gut metagenome community of T-03 with ENA study accession number: PRJEB31790 for biotransformation under anaerobic condition. The drug concentrations were measured over 7 timepoints collected between 0 and 12 hours of incubation by liquid-chromatography-coupled mass spectrometry (LC–MS); assay type: ADME; parameters: dose 5 uM, timepoint 0, 0.75, 1.5, 3, 6, 9, 12 hours; conditions: 5 µM
parameter: Bacterial Biotransformation

[[record]]
compound = "CCCC1O[C@@H]2C[C@H]3[C@@H]4CCC5=CC(=O)C=C[C@]5(C)[C@H]4[C@@H](O)C[C@]3(C)[C@]2(C(=O)CO)O1 (stereo partly drawn) [BUDESONIDE]"
measurement = "Compound NOT metabolized"

[[record]]
compound = "C[C@]12CCC(=O)C=C1CC[C@@H]1[C@@H]2[C@@H](O)C[C@@]2(C)[C@H]1CC[C@]2(O)C(=O)CO [HYDROCORTISONE]"
measurement = "Compound NOT metabolized"

[[record]]
compound = "C[C@]12C=CC(=O)C=C1CC[C@@H]1[C@@H]2[C@@H](O)C[C@@]2(C)[C@H]1CC[C@]2(O)C(=O)CO"
measurement = "Compound NOT metabolized"


====

assay: The drug is tested on the gut metagenome community of A-10 with ENA study accession number: PRJEB31790 for biotransformation under anaerobic condition. The drug concentrations were measured over 7 timepoints collected between 0 and 12 hours of incubation by liquid-chromatography-coupled mass spectrometry (LC–MS); format: ADME; design: dose 5 uM, timepoint 0, 0.75, 1.5, 3, 6, 9, 12 hours; conditions: 5 µM
parameter: Bacterial Biotransformation

[[record]]
molecule = "CCCC1O[C@@H]2C[C@H]3[C@@H]4CCC5=CC(=O)C=C[C@]5(C)[C@H]4[C@@H](O)C[C@]3(C)[C@]2(C(=O)CO)O1 (stereo partly drawn) [BUDESONIDE]"
measurement = "Compound NOT metabolized"

[[record]]
molecule = "C[C@H]1C[C@H]2[C@@H]3CCC4=CC(=O)C=C[C@]4(C)[C@@]3(F)[C@@H](O)C[C@]2(C)[C@@]1(O)C(=O)CO"
measurement = "Compound NOT metabolized"

[[record]]
molecule = "C[C@]12CCC(=O)C=C1CC[C@@H]1[C@@H]2C(=O)C[C@@]2(C)[C@H]1CC[C@]2(O)C(=O)CO"
measurement = "Compound metabolized"

[[record]]
molecule = "CCC(C)(C)C(=O)O[C@H]1C[C@@H](C)C=C2C=C[C@H](C)[C@H](CC[C@@H]3C[C@@H](O)CC(=O)O3)[C@H]21"
measurement = "Compound NOT metabolized"

[[record]]
molecule = "NS(=O)(=O)c1cc(C(=O)O)c(NCc2ccco2)cc1Cl [FUROSEMIDE]"
measurement = "Compound NOT metabolized"


query: Please indicate Bacterial Biotransformation recorded for CC(C)NCC(O)COc1ccc(CC(N)=O)cc1 (stereo not drawn)
result: Compound NOT metabolized

query: Please indicate Bacterial Biotransformation recorded for C[C@H]1C[C@@H]2[C@H]([C@@H](O)C[C@@]3(C)[C@H]2CC[C@]3(O)C(=O)CO)[C@@]2(C)C=CC(=O)C=C12
result: Compound metabolized

query: Please indicate Bacterial Biotransformation recorded for COc1c(C)c2c(c(O)c1C/C=C(\C)CCC(=O)OCCN1CCOCC1)C(=O)OC2 [MYCOPHENOLATE MOFETIL]
result: Compound metabolized

query: Please indicate Bacterial Biotransformation recorded for C[C@@H]1C[C@H]2[C@@H]3CCC4=CC(=O)C=C[C@]4(C)[C@@]3(F)[C@@H](O)C[C@]2(C)[C@@]1(O)C(=O)CO
result: Compound NOT metabolized

query: Please indicate Bacterial Biotransformation recorded for CNC(=C[N+](=O)[O-])NCCSCc1ccc(CN(C)C)o1
result: Compound NOT metabolized

query: Please indicate Bacterial Biotransformation recorded for CCOc1nc2cccc(C(=O)O)c2n1Cc1ccc(-c2ccccc2-c2nnn[nH]2)cc1
result: Compound NOT metabolized

query: Please indicate Bacterial Biotransformation recorded for C[C@]12C=CC(=O)C=C1CC[C@@H]1[C@@H]2[C@@H](O)C[C@@]2(C)[C@H]1CC[C@]2(O)C(=O)CO
result: Compound metabolized

query: Please indicate Bacterial Biotransformation recorded for CO[C@H]1C[C@@H]2CC[C@@H](C)[C@@](O)(O2)C(=O)C(=O)N2CCCC[C@H]2C(=O)O[C@H]([C@H](C)C[C@@H]2CC[C@@H](OCCO)[C@H](OC)C2)CC(=O)[C@H](C)/C=C(\C)[C@@H](O)[C@@H](OC)C(=O)[C@H](C)C[C@H](C)/C=C/C=C/C=C/1C
result: Compound metabolized

====

assay: The drug is tested on the gut metagenome community of A-07 with ENA study accession number: PRJEB31790 for biotransformation under microaerobic condition. The drug concentrations were measured over 7 timepoints collected between 0 and 12 hours of incubation by liquid-chromatography-coupled mass spectrometry (LC–MS); assay type: ADME; parameters: dose 5 uM, timepoint 0, 0.75, 1.5, 3, 6, 9, 12 hours; settings: 5 µM
parameter: Bacterial Biotransformation

[[record]]
molecule = "C=CC[C@@H]1/C=C(\\C)C[C@H](C)C[C@H](OC)[C@H]2O[C@@](O)(C(=O)C(=O)N3CCCC[C@H]3C(=O)O[C@H](/C(C)=C/[C@@H]3CC[C@@H](O)[C@H](OC)C3)[C@H](C)[C@@H](O)CC1=O)[C@H](C)C[C@@H]2OC.O"
parameter = "Bacterial Biotransformation"
measurement = "Compound metabolized"

[[record]]
molecule = "C[C@]12C=CC(=O)C=C1CC[C@@H]1[C@@H]2C(=O)C[C@@]2(C)[C@H]1CC[C@]2(O)C(=O)CO"
parameter = "Bacterial Biotransformation"
measurement = "Compound metabolized"

[[record]]
molecule = "CO[C@H]1C[C@@H]2CC[C@@H](C)[C@@](O)(O2)C(=O)C(=O)N2CCCC[C@H]2C(=O)O[C@H]([C@H](C)C[C@@H]2CC[C@@H](OCCO)[C@H](OC)C2)CC(=O)[C@H](C)/C=C(\\C)[C@@H](O)[C@@H](OC)C(=O)[C@H](C)C[C@H](C)/C=C/C=C/C=C/1C"
parameter = "Bacterial Biotransformation"
measurement = "Compound metabolized"

[[record]]
molecule = "C[C@@H](NCCCc1cccc(C(F)(F)F)c1)c1cccc2ccccc12"
parameter = "Bacterial Biotransformation"
measurement = "Compound NOT metabolized"

[[record]]
molecule = "CNC(=C[N+](=O)[O-])NCCSCc1ccc(CN(C)C)o1"
parameter = "Bacterial Biotransformation"
measurement = "Compound metabolized"


query: Please indicate Bacterial Biotransformation recorded for CCOC(=O)[C@H](CCc1ccccc1)N[C@@H](C)C(=O)N1[C@H](C(=O)O)C[C@@H]2CCC[C@@H]21
result: Compound NOT metabolized

query: Please indicate Bacterial Biotransformation recorded for CC(C)NCC(O)COc1ccc(CC(N)=O)cc1 (stereo not drawn)
result: Compound NOT metabolized

query: Please indicate Bacterial Biotransformation recorded for CN(Cc1cnc2nc(N)nc(N)c2n1)c1ccc(C(=O)N[C@@H](CCC(=O)O)C(=O)O)cc1 [METHOTREXATE]
result: Compound metabolized

query: Please indicate Bacterial Biotransformation recorded for CCC(C)(C)C(=O)O[C@H]1C[C@@H](C)C=C2C=C[C@H](C)[C@H](CC[C@@H]3C[C@@H](O)CC(=O)O3)[C@H]21
result: Compound NOT metabolized

query: Please indicate Bacterial Biotransformation recorded for C[C@]12C=CC(=O)C=C1CC[C@@H]1[C@@H]2[C@@H](O)C[C@@]2(C)[C@H]1CC[C@]2(O)C(=O)CO
result: Compound metabolized
